TEST TARGET: recombinant HIV-1 protease (Human immunodeficiency virus type 1 group M subtype B, UniProt P04585)
Construct: measured using a recombinant HIV-1 protease
ASSAY DETAILS: HIV protease inhibition activity (enzyme activity inhibition rate)
Format: biochemical
SETTINGS: 50 nM final concentration of test compound; 60 min at 37° C.; read-out: Enzyme activity inhibition rate (%) (addition concentration of 50 nM)
PROPERTY: inhibition at 0.05 µM (%)
Give bare numbers, in %.

INSERT INTO measurements (cpd_smiles, unit_string, numeric_readout) VALUES
  ('COCCOC(=O)N[C@H](C(=O)N[C@@H](Cc1ccccc1)[C@H](O)C(=O)N1CSC(C)(C)[C@H]1C(=O)NCc1ccccc1C)C(C)C', '%', 94.2),
  ('CC[C@H](NC(=O)OC)C(=O)N[C@@H](Cc1ccccc1)[C@H](O)C(=O)N1CSC(C)(C)[C@H]1C(=O)NCc1ccccc1C', '%', 93.6),
  ('CCOC(=O)N[C@H](C(=O)N[C@@H](Cc1ccccc1)[C@H](O)C(=O)N1CSC(C)(C)[C@H]1C(=O)NCc1ccccc1C)C(C)C', '%', 93);

Batch request: inhibition at 0.05 µM for each of the following compounds.
1. Cc1ccccc1CNC(=O)[C@@H]1CSCN1C(=O)[C@@H](O)[C@H](Cc1ccccc1)NC(=O)[C@H](CC(N)=O)NC(=O)OCc1ccccc1
2. Cc1ccccc1CNC(=O)[C@H]1N(C(=O)[C@@H](O)[C@H](Cc2ccccc2)NC(=O)[C@@H](NC(=O)c2nc3ccccc3s2)C(C)C)CSC1(C)C
3. Cc1ccccc1CNC(=O)[C@H]1N(C(=O)[C@@H](O)[C@H](Cc2ccccc2)NC(=O)[C@@H](NC(=O)c2ccc3ccccc3n2)C(C)C)CSC1(C)C
4. Cc1ccccc1CNC(=O)[C@H]1N(C(=O)[C@@H](O)[C@H](Cc2ccccc2)NC(=O)[C@H](CC(N)=O)NC(=O)c2cc3ccccc3o2)CSC1(C)C
5. Cc1ccccc1CNC(=O)[C@H]1N(C(=O)[C@@H](O)[C@H](Cc2ccccc2)NC(=O)[C@@H](NC(=O)COc2cccc3ncccc23)C(C)C)CSC1(C)C
6. COc1cccc2cc(C(=O)N[C@@H](C)C(=O)N[C@@H](Cc3ccccc3)[C@H](O)C(=O)N3CSC(C)(C)[C@H]3C(=O)NCc3ccccc3C)oc12

Reply:
71.7
95.8
96.6
91.2
98.5
97.6

Ask: Give the measured inhibition at 0.05 µM for `Cc1ccccc1CNC(=O)[C@H]1N(C(=O)[C@@H](O)[C@H](Cc2ccccc2)NC(=O)[C@@H](NC(=O)c2nc3ccccc3[nH]2)C(C)C)CSC1(C)C`
Reply: 92.8
